System: ATP;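 also: ATP exposure 15 min at 22 °C before imaging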
Experiment: switch fluorescence ratio, 500 uM ATP over buffer (Cy3 cluster intensity, sum of 5 cycles each) (fold (ratio)); higher = stronger signal-on switching upon ATP binding; sequences stand for … in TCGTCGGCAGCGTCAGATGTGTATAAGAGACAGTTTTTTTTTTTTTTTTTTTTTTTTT…TC
Conditions: aptamer strand: ATP DNA aptamer (quencher-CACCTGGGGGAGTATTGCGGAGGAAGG + anchor), 100 nM annealed; ATP concentration: 500 uM
reportedEndpoint: switch fluorescence ratio
One number for each entry.

{"residueCodes": "CGAAAGTTTA", "switch fluorescence ratio": 1.01}
{"residueCodes": "CCGTGTGTCA", "switch fluorescence ratio": 1.03}
{"residueCodes": "GCGGGGCAGC", "switch fluorescence ratio": 1}
{"residueCodes": "AATCCTAAGG", "switch fluorescence ratio": 1.02}
{"residueCodes": "TATTTGGAGG", "switch fluorescence ratio": 0.992}
{"residueCodes": "CCGTCATTGT", "switch fluorescence ratio": 1.11}

Can you give me switch fluorescence ratio for all of these, one by one?
1. TTGTGGGTAT
2. CCGCCGAGGT
3. CGGGGTCGTT
4. TCATCGCATG
5. TTAAATGGGT
6. TTTCGAAACT

0.954
1.68
1
1.3
1
1

Can you give me switch fluorescence ratio for all of these, one by one?
1. AGCCGGCGGT
2. TTTATTGCGT
3. AACGCGGTGG
4. GTTTAAACTT
5. TATGGAGCGT
6. GATCGGATGT
7. TTGCGTGGTG

1.02
1.01
0.941
0.996
1.04
0.981
0.959

Can you give me switch fluorescence ratio for all of these, one by one?
1. GCTAGGCCTC
2. AAGTCTCTCC
3. TTTCACATGG
4. ATTTGGCGGT
5. TACGGGAGTC
6. CTAGAAGTAT
7. ATGAAATTTT

1: 1.01; 2: 1.06; 3: 1.05; 4: 0.997; 5: 1.06; 6: 1.02; 7: 1.01

Can you give me switch fluorescence ratio for all of these, one by one?
1. TGACTTGGGG
2. GCCGGGGCGC
3. GCCCGGGGGA
4. CCGAGAAGAG

1. 0.995
2. 1
3. 1.94
4. 1.58

Can you give me switch fluorescence ratio for all of these, one by one?
1. AAATAATTGG
2. TATTTTGAAG
3. AGGGCTAGTA
4. TGCAGCATCT

1: 1.09; 2: 1.07; 3: 1; 4: 1.13

Can you give me switch fluorescence ratio for all of these, one by one?
1. GCGGGGTCCG
2. ATGCTGAGGA
3. ACCTATTAGA
4. AATTTTAGGA
5. ATCAGTTTTC

1. 0.971
2. 0.977
3. 1.01
4. 0.98
5. 0.985

Can you give me switch fluorescence ratio for all of these, one by one?
1. TATGGTGTGC
2. GTTATATTTT
3. TGTTTTTAAC
4. TAATTTCTGC
5. CCGTGTGGGT
6. CGGCCGAGAG

1. 1.02
2. 1.01
3. 0.983
4. 0.993
5. 1.01
6. 1.02

Can you give me switch fluorescence ratio for all of these, one by one?
1. TTCAAGTTAT
2. GCGAGTAGG
3. TGTGTCATGG
4. CGGACCAAGG
5. TGATATAGGA

1: 1.04; 2: 1.06; 3: 0.986; 4: 1; 5: 1.01

###

Test system: ATP;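 also: ATP exposure 15 min at 22 °C before imaging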
Experiment: switch fluorescence ratio, 500 uM ATP over buffer (Cy3 cluster intensity, sum of 5 cycles each) (fold (ratio)); higher = stronger signal-on switching upon ATP binding; sequences stand for … in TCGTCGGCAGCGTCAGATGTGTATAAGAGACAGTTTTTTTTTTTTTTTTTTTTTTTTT…TC
Details: aptamer strand: ATP DNA aptamer (quencher-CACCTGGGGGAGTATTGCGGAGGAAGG + anchor), 100 nM annealed; ATP concentration: 500 uM
Provide the recorded switch fluorescence ratio for the entries that follow.
Numbers only.

Can you give me switch fluorescence ratio for all of these, one by one?
1. GCTAGTAAGT
2. GGGTAGGGTC
3. GTATGGCGGG
4. TGCATTAATG
5. TTATGTTTGG
6. AAAGAACGGG
7. AACATTCGTT

1: 0.982; 2: 1.01; 3: 1.01; 4: 0.989; 5: 1.02; 6: 1.04; 7: 1.03

###

Provide the recorded switch fluorescence ratio for the entries that follow.
System: ATP;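 also: ATP exposure 15 min at 22 °C before imaging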
Experiment: switch fluorescence ratio, 500 uM ATP over buffer (Cy3 cluster intensity, sum of 5 cycles each) (fold (ratio)); higher = stronger signal-on switching upon ATP binding; sequences stand for … in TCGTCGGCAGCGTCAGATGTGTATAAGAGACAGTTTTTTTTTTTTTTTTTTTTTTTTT…TC
Conditions: aptamer strand: ATP DNA aptamer (quencher-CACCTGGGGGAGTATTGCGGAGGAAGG + anchor), 100 nM annealed; ATP concentration: 500 uM
Answers are plain numbers.

Examples with answers:
{"residueCodes": "CTCGTTTTTG", "measured": 0.972}
{"residueCodes": "ATGTATAGGA", "measured": 0.992}
{"residueCodes": "GCTGATAACG", "measured": 1.01}
{"residueCodes": "ATTTGATTTG", "measured": 1}
{"residueCodes": "GCGAGGGAGG", "measured": 1.02}

Can you give me switch fluorescence ratio for all of these, one by one?
1. GGGGTCGGG
2. TTTATGAACT
3. GTTTTCGTTT
4. AAGTTTTCAG
5. ATTAGGGGAG
6. CAGGTTGTTC
7. AGTGTGATAG
8. CAACCTGGGA

1. 0.977
2. 1.02
3. 0.971
4. 0.97
5. 0.972
6. 1.01
7. 0.995
8. 1.02

###

Tested on: ATP;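 also: ATP exposure 15 min at 22 °C before imaging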
Assay: switch fluorescence ratio, 500 uM ATP over buffer (Cy3 cluster intensity, sum of 5 cycles each) (fold (ratio)); higher = stronger signal-on switching upon ATP binding; sequences stand for … in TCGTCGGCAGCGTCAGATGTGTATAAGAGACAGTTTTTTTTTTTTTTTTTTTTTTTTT…TC
Conditions: aptamer strand: ATP DNA aptamer (quencher-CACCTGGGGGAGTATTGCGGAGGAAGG + anchor), 100 nM annealed; ATP concentration: 500 uM
Provide the recorded switch fluorescence ratio for the entries that follow.
Give bare numbers.

Examples with answers:
{"residueCodes": "CTAGCTTACT", "reportedEndpoint": "switch fluorescence ratio", "measured": 1.36}
{"residueCodes": "AAGATGTATG", "reportedEndpoint": "switch fluorescence ratio", "measured": 0.99}
{"residueCodes": "TTGGGCAGTT", "reportedEndpoint": "switch fluorescence ratio", "measured": 0.98}
{"residueCodes": "TCTGAACGGG", "reportedEndpoint": "switch fluorescence ratio", "measured": 1.02}
{"residueCodes": "TGCAATGGGC", "reportedEndpoint": "switch fluorescence ratio", "measured": 1.21}
{"residueCodes": "AGCTTCTTAA", "reportedEndpoint": "switch fluorescence ratio", "measured": 0.992}

Can you give me switch fluorescence ratio for all of these, one by one?
1. GTTGAAAGGG
2. TGAAACTTGT
3. CGTGATGGTA
4. AGAGGCTGTG

1.03
1.01
0.969
1.01

###

Test system: ATP;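 also: ATP exposure 15 min at 22 °C before imaging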
Experiment: switch fluorescence ratio, 500 uM ATP over buffer (Cy3 cluster intensity, sum of 5 cycles each) (fold (ratio)); higher = stronger signal-on switching upon ATP binding; sequences stand for … in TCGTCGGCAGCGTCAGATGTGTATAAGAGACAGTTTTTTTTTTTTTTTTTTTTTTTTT…TC
Conditions: aptamer strand: ATP DNA aptamer (quencher-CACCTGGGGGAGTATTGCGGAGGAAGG + anchor), 100 nM annealed; ATP concentration: 500 uM
reportedEndpoint: switch fluorescence ratio
Give bare numbers.

Examples with answers:
{"residueCodes": "CTTATTTGGT", "switch fluorescence ratio": 0.992}
{"residueCodes": "TCGGAGCGGG", "switch fluorescence ratio": 1.1}

Can you give me switch fluorescence ratio for all of these, one by one?
1. TTTGATAAAT
2. AAGGGCGCTC

1
0.975

Can you give me switch fluorescence ratio for all of these, one by one?
1. ATTATCGCGC
2. GAGTTTCATG
3. GTTGTTAAGG
4. CATAGGCATT
5. CGGTTAACGG

[0.983, 0.963, 0.996, 1.03, 1]

###

Test system: ATP;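 also: ATP exposure 15 min at 22 °C before imaging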
Assay: switch fluorescence ratio, 500 uM ATP over buffer (Cy3 cluster intensity, sum of 5 cycles each) (fold (ratio)); higher = stronger signal-on switching upon ATP binding; sequences stand for … in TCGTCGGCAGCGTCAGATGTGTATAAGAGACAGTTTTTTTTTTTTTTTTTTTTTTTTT…TC
Conditions: aptamer strand: ATP DNA aptamer (quencher-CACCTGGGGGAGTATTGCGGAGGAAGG + anchor), 100 nM annealed; ATP concentration: 500 uM
reportedEndpoint: switch fluorescence ratio
Answers are plain numbers.

Examples with answers:
{"residueCodes": "TTTATCGGGC", "measured": 0.989}
{"residueCodes": "AGATGGTTTC", "measured": 0.993}
{"residueCodes": "TGAAGGGGAA", "measured": 1.02}
{"residueCodes": "CAGTAGTAGT", "measured": 1.02}
{"residueCodes": "TGCTAAATTA", "measured": 1.01}
{"residueCodes": "ATTGTGGAGC", "measured": 1.04}
{"residueCodes": "TCAACGCAGG", "measured": 1.19}
{"residueCodes": "TTTAATGAGC", "measured": 0.995}

Can you give me switch fluorescence ratio for all of these, one by one?
1. ACTTATTGGG
2. CGGGGAAAGC
3. TGTGGTATGC
4. GAGGGTAGTT
5. ATGGGCGAAC

1. 1.03
2. 0.985
3. 1.01
4. 1.03
5. 1.63

Can you give me switch fluorescence ratio for all of these, one by one?
1. TAGAGGGTTG
2. TGTTAGGGGT
3. TTAACGGTCT
4. TTTTGAGCGG
5. ACTATCGGGT
6. GAGTGCTATT
7. TTGGAAGGGA

1: 0.969; 2: 1; 3: 1.04; 4: 1.04; 5: 1.04; 6: 0.981; 7: 1
